tested on: Candida tropicalis; assay: Antifungal activity against Candida tropicalis ATCC 750 by broth dilution method; format: functional
Threshold 2 µg/mL. MIC50 below it: Met. MIC50 at it or above: Not met.

Please review the following examples before continuing.
[[record]]
compound = "O=C1OCC(c2ccc(Br)cc2)=C1c1ccc(OCC(O)(Cn2cncn2)c2ccc(F)cc2F)cc1 (racemic)"
label_class = "Not met"

[[record]]
compound = "COc1cc(C=O)ccc1OCC(O)(Cn1cncn1)c1ccc(F)cc1F (racemic)"
label_class = "Not met"

[[record]]
compound = "C[C@@H]1[C@H](O)[C@@H](C)/C=C/C=C/C=C/C=C/C=C/C=C/C=C/[C@H](O[C@@H]2O[C@H](C)[C@@H](O)[C@H](N)[C@@H]2O)C[C@@H]2O[C@](O)(C[C@@H](O)C[C@@H](O)[C@H](O)CC[C@@H](O)C[C@@H](O)CC(=O)O[C@H]1C)C[C@H](O)[C@H]2C(=O)O"
label_class = "Met"

[[record]]
compound = "O=Cc1ccc(OCC(O)(Cn2cncn2)c2ccc(F)cc2F)cc1 (racemic)"
label_class = "Not met"


Data request: # strict comparison: is reported MIC50 < 2 µg/mL? input = CC1(O)OC(=O)C(c2ccc(OCC(O)(Cn3cncn3)c3ccc(F)cc3F)cc2)=C1c1ccc(F)cc1F (racemic)
Data returned: Not met

###

test system: Candida tropicalis; assay: Antifungal activity against Candida tropicalis ATCC 750 by broth dilution method; format: functional
The molecules listed here are annotated with their MIC50.
Number in µg/mL, nothing else.

[[record]]
molecule = "O=C1OCC(c2cccs2)=C1c1ccc(OCC(O)(Cn2cncn2)c2ccc(F)cc2F)cc1 (racemic)"
result_value = 2

[[record]]
molecule = "Cc1ccc(C2=C(c3ccc(OCC(O)(Cn4cncn4)c4ccc(F)cc4F)cc3)C(=O)OC2)cc1 (racemic)"
result_value = 2

[[record]]
molecule = "O=C1OCC(c2ccccc2)=C1c1ccc(OCC(O)(Cn2cncn2)c2ccc(F)cc2F)cc1 (racemic)"
result_value = 2

[[record]]
molecule = "COc1cc(C2=C(c3ccc(F)cc3)COC2=O)ccc1OCC(O)(Cn1cncn1)c1ccc(F)cc1F (racemic)"
result_value = 2

[[record]]
molecule = "COc1ccc(C2=C(c3ccc(OCC(O)(Cn4cncn4)c4ccc(F)cc4F)cc3)C(=O)OC2)cc1 (racemic)"
result_value = 4

[[record]]
molecule = "O=C1OCC(c2ccc(F)cc2F)=C1c1ccc(OCC(O)(Cn2cncn2)c2ccc(F)cc2F)cc1 (racemic)"
result_value = 2

[[record]]
molecule = "COc1cc(C=O)cc(OC)c1OCC(O)(Cn1cncn1)c1ccc(F)cc1F (racemic)"
result_value = 64


Data request: Requested read-out: MIC50. Entry: O=C1OCC(c2ccc(F)cc2)=C1c1ccc(OCC(O)(Cn2cncn2)c2ccc(F)cc2F)cc1 (racemic)
Data returned: 1
